B1: BCL2L13 (parent)
chain: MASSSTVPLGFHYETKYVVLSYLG

variants of: B1; assay: protein stability index of a GFP-peptide fusion (GPS, HEK-293T) (PSI 1-6); higher = more stable; details: c terminus: a fixed tail appended;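 further: lentivirally expressed fusions sorted by FACS into six bins by GFP to DsRed ratio, PSI derived from sequencing read proportions per bin multiplied by bin number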
ENDPOINT LABEL: protein stability index

>>> df
   mutation_name           endpoint_label  meas_value
0            S3H  protein stability index        2.77
1           Y22S  protein stability index        3.81
2           L23H  protein stability index        2.59
